# maps each entry to its binding signal
Target: GST-Nv-NF-kB (Cys allele) (Nematostella vectensis, UniProt E5G601 2-411)
Sequence: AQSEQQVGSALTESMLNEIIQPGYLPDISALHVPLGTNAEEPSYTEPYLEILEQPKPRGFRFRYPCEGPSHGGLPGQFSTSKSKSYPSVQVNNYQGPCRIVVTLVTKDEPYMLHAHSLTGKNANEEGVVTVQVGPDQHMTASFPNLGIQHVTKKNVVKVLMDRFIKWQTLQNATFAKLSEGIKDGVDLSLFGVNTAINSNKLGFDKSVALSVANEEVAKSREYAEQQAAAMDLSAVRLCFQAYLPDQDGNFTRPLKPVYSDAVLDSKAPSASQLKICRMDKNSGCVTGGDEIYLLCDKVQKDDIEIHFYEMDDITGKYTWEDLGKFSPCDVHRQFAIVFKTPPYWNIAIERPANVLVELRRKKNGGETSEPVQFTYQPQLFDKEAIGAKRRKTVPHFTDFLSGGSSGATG
Test: protein-binding microarray (PBM); PBM: ~300 nM protein, 6 mM HEPES pH 7.8, 80 mM KCl, 0.5 mM EDTA, 0.5 mM EGTA, 6% glycerol, 35 ng/ul poly-dIdC, 1% milk, 1 h, room temperature; high values mean tight binding
Details: dsDNA, one strand shown
// return numeric value only (unit: z-score, not printed)

Field: example entries. Status: answers known.
Macromolecule Sequence | Measured On | Units Of Measure | binding signal
CCGATTAACATCATCCGGGAAAATGATGTTAATCGGGTCTTGATTCGCTTGACGCTGCTG | GST-Nv-NF-kB (Cys allele) (Nematostella vectensis, UniProt E5G601 2-411) | z-score | 3.79
CCGATTAACATCAGGCATTTCCCTGATGTTAATCGGGTCTTGATTCGCTTGACGCTGCTG | GST-Nv-NF-kB (Cys allele) (Nematostella vectensis, UniProt E5G601 2-411) | z-score | 5.12

Form field: reported binding signal of `CCGATTAACATCAGGGAGGTACCTGATGTTAATCGGGTCTTGATTCGCTTGACGCTGCTG`
2.59

Also `CCGATTAACATCAGGCCATTCCCTGATGTTAATCGGGTCTTGATTCGCTTGACGCTGCTG` , if possible.
2.63

---

# maps each entry to its binding signal
Target: GST-Dm-Relish (Drosophila melanogaster, UniProt Q94527 99-473)
Sequence: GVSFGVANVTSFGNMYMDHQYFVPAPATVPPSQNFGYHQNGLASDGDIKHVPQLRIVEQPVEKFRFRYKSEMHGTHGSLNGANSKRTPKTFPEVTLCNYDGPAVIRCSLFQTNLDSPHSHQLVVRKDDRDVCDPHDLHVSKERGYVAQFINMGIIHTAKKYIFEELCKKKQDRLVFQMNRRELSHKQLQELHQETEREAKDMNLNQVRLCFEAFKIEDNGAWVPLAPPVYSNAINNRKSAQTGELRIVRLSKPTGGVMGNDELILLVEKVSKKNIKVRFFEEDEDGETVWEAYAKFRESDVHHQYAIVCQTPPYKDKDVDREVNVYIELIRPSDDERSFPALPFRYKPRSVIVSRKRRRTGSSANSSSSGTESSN
Test: protein-binding microarray (PBM); PBM: ~300 nM protein, 6 mM HEPES pH 7.8, 80 mM KCl, 0.5 mM EDTA, 0.5 mM EGTA, 6% glycerol, 35 ng/ul poly-dIdC, 1% milk, 1 h, room temperature; Ap Aiptasia and Nv Nematostella (sea anemones) / Co Capsaspora / Aq Amphimedon (sponge) / Dm Drosophila / Hu human; RHD is the Rel homology domain; high values mean tight binding
Details: dsDNA, one strand shown
// return numeric value only (unit: z-score, not printed)

Field: example entries. Status: answers known.
Macromolecule Sequence | binding signal (z-score)
CCGATTAACATCAATCGTCCCCCTGATGTTAATCGGGTCTTGATTCGCTTGACGCTGCTG | 2.93
CCGATTAACATCAAGTTCCCCCCTGATGTTAATCGGGTCTTGATTCGCTTGACGCTGCTG | 6.95
CCGATTAACATCAGAAGATTCCCTGATGTTAATCGGGTCTTGATTCGCTTGACGCTGCTG | 3.48
CCGATTAACATCAGGAATCTCCCTGATGTTAATCGGGTCTTGATTCGCTTGACGCTGCTG | 2.25

Form field: reported binding signal of `CCGATTAACATCACACTACCCCCTGATGTTAATCGGGTCTTGATTCGCTTGACGCTGCTG`
1.77

Also `CCGATTAACATCAGGGGATTACATGATGTTAATCGGGTCTTGATTCGCTTGACGCTGCTG` , if possible.
8

Also `CCGATTAACATCACGGGGGGTACTGATGTTAATCGGGTCTTGATTCGCTTGACGCTGCTG` , if possible.
3.63

Also `CCGATTAACATCAAATCCCCCCCTGATGTTAATCGGGTCTTGATTCGCTTGACGCTGCTG` , if possible.
7.98

Also `CCGATTAACATCACGGGAAATCCTGATGTTAATCGGGTCTTGATTCGCTTGACGCTGCTG` , if possible.
6.3

Also `CCGATTAACATCAGTAATTTACATGATGTTAATCGGGTCTTGATTCGCTTGACGCTGCTG` , if possible.
6.73

Also `CCGATTAACATCAGGATAATCCCTGATGTTAATCGGGTCTTGATTCGCTTGACGCTGCTG` , if possible.
2.88

Also `CCGATTAACATCACCCTCCCCCCTGATGTTAATCGGGTCTTGATTCGCTTGACGCTGCTG` , if possible.
3.66

Also `CCGATTAACATCAAATAATTTCCTGATGTTAATCGGGTCTTGATTCGCTTGACGCTGCTG` , if possible.
1.21

Also `CCGATTAACATCAGGGGGGAGAATGATGTTAATCGGGTCTTGATTCGCTTGACGCTGCTG` , if possible.
3.85

Also `CCGATTAACATCACGGGGGGTAATGATGTTAATCGGGTCTTGATTCGCTTGACGCTGCTG` , if possible.
3.64

Also `CCGATTAACATCACAACTTTCCCTGATGTTAATCGGGTCTTGATTCGCTTGACGCTGCTG` , if possible.
2.04

Also `CCGATTAACATCAGGAGTTCCCATGATGTTAATCGGGTCTTGATTCGCTTGACGCTGCTG` , if possible.
6.1

Also `CCGATTAACATCAGGGGGAAGACTGATGTTAATCGGGTCTTGATTCGCTTGACGCTGCTG` , if possible.
4.92
